// provenance: paper PMC13154657

target: human P2Y14 receptor (Homo sapiens); experiment: In vitro P2Y14R antagonistic activity
Sequence (Q15391 whole entry): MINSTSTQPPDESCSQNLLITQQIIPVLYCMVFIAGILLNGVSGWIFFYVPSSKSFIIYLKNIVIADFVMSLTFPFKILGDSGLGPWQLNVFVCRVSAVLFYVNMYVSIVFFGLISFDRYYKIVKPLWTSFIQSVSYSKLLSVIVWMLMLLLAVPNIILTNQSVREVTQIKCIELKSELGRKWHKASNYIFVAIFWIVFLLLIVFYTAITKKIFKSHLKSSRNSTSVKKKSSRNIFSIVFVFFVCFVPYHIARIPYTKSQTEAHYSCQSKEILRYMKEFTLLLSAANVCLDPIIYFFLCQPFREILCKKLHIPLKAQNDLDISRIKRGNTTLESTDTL
MEASURED_METRIC: pIC50
# pIC50 = -log10(concentration in molar units)

Request: Need pIC50, item O=C(O)CCC(=O)OC[C@@H](NC(=O)C(Cl)Cl)[C@H](O)c1ccc([N+](=O)[O-])cc1 [DB07565, Chloramphenicol succinate]
Result: 8.80
